All figures here come from paper PMC3750255.

Each item that follows carries a reported MIC.
Tested on: M. pneumoniae wild type (laboratory strain M129)
Experiment: Mpn growth inhibition in 96-well plates (growth index A450/A560), wild type strain
Format: cell-based, Mycoplasma pneumoniae
Conditions: Mycoplasmoides pneumoniae, read-out: Wild type MIC
readout-kind: MIC

>  <compound>
Nc1ncn([C@@H]2O[C@H](CO)[C@@H](O)[C@H]2O)c(=O)n1 [5-azacytidine]

>  <readout-kind>
MIC

>  <experimental-result>
> 500 µg/mL

$$$$
>  <compound>
CCc1nc(N)nc(N)c1-c1ccc(Cl)cc1 [Pyrimethamine]

>  <readout-kind>
MIC

>  <experimental-result>
> 500 µg/mL

$$$$
>  <compound>
Nc1ccn([C@@H]2CS[C@H](CO)O2)c(=O)n1 [Lamivudine]

>  <readout-kind>
MIC

>  <experimental-result>
> 500 µg/mL

$$$$
